Target: skeletal Troponin I (UniProt P48788)
Conditions: Luminex bead fluorescence assay, streptavidin-phycoerythrin detection; room temperature 1 h, PBS washes
MEASURE_NAME: Kd (µM)
Value expressed in µM; do not type the unit.

Entry GGGATGGGGTGGGTGGCCAGCGATT [SEQ ID NO: 1 aptamer] needs its Kd filled in; supply it.
0.0377

----------
Target: skeletal Troponin I (UniProt P48788)
Conditions: Luminex bead fluorescence assay, streptavidin-phycoerythrin detection; room temperature 1 h, PBS washes
MEASURE_NAME: Kd (nM)
Value expressed in nM; do not type the unit.

Entry TTAGGGGTGGTGTGGTTGGCAATTC [SEQ ID NO: 2 aptamer] needs its Kd filled in; supply it.
5
